The measurements presented in this section are drawn from the supplement of paper PMC11417369.

test system: PfAP2-I AP2 domain 3 (GST-tagged); test: gcPBM binding intensity (ln(normalized median fluorescence intensity)); higher = stronger DNA binding
Whole data set: some 25,000 sequences, median “ln(normalized median fluorescence intensity)” near 7.9, cut for the highest 2% near 11. Only a selection was taken, and the highest values are over-represented in it overall.
measured.metric: gcPBM binding intensity (ln)

record.sequence	reported.result
TTATAAATAAAAAGAGTGCAATTATAAATATATATA	10.1
ATATATTTGATAAGAGTGCACAAATACATACATACA [GTGCAC_site9704]	10.9
CATTTTATTTTCTTTGTGCACAAAAATATTTTTTCT	11.1
AGATATTTATTGAGTGCATGTTATAAAGGGAAAAAA [TGCATGCA_site88]	9.04
TTTGTTTTTTTGAGAGTGCAATATATATAAAAAGGG [GTGCAC_site9691]	11.2

###

system: PfAP2-I AP2 domain 3 (GST-tagged); assay: gcPBM binding intensity (ln(normalized median fluorescence intensity)); higher = stronger DNA binding
Whole data set: some 25,000 sequences, median “ln(normalized median fluorescence intensity)” near 7.9, cut for the highest 2% near 11. What follows is part of a selection rich in the highest values, with near analogues and random picks from the rest.

record.sequence	gcPBM binding intensity (ln)
AATTATTGTGAAGGGAAAACAAAAAAGTTTATAATT [CACACA_negctrl_site1337]	8.01
TATTATTCAAAATTTGTGCACAAAATTAAAGGAACA	10.8
ATATATATTAATTTTGTGCACAAATGGAAATGTTTG [GTGCAC_site9971]	11
ATTTTTATTTTATATACACACAATAATAATATAATA [CACACA_site4015]	7.83
TAATATAATATATGCACACAAATATGTATTTATGTG [CACACA_site5210]	9.14
ATATTTTATATATTTGTGCACAATATTATAATATAT	11
AATATAATTATATGTGGTACAGAAATAATATAAAAT [XGTACX_site2366]	8.22
AATTAAATTACTTATACACACATAAAATGTCTGTAT [CACACA_site997]	7.76
ATTTTTATTTTTTTTGTGCACATTTTCATTTTCTAT [GTGCAC_site9580]	10.4
ATTATTATAGATATAACACACATAATTACATACTTA [CACACA_site6837]	7.97
ATATGCATAAAAAGAGGTACACATAAAATATATATA [XGTACX_site5864]	8.19
ATACAATTTATTTTAACACACGAATGAATTGATTAT [CACACA_site4160]	7.76
TGTATATGGTTTGTGCAAAAATTTATTAATGTGTAA [TGCATGCA_negctrl_site374]	8.8
TGAAATTTTATTAATGTGCACATATATTTATTGTTC	9.77

###

system: PfAP2-I AP2 domain 3 (GST-tagged); test: gcPBM binding intensity (ln(normalized median fluorescence intensity)); higher = stronger DNA binding
Over roughly 25,000 sequences, “ln(normalized median fluorescence intensity)” has its median near 7.9; the highest 2% begin near 11. The sample as a whole holds a higher share of the highest values than the screen did.
Listing of recorded gcPBM binding intensity (ln) by entry.

record.sequence	gcPBM binding intensity (ln)
TAATGGTGTTCATGTGGTACACTTTATAAATTGGCA [XGTACX_site729]	7.9
AAAAAAAAAAAACACACACACACACCCAAATATATA [CACACA_site150]	7.91
ATGGATTTTACCATAGCACACATATATGAATATTTT [CACACA_site8535]	7.96
TTAATATAGGGAAAAAAAAGAAAATCGAAAATGTGT [CACACA_negctrl_site834]	8

###

system: PfAP2-I AP2 domain 3 (GST-tagged); assay: gcPBM binding intensity (ln(normalized median fluorescence intensity)); higher = stronger DNA binding
In all, about 25,000 sequences were measured (“ln(normalized median fluorescence intensity)”: median about 7.9, highest 2% from about 11 on). For the sample, the highest values were picked, then their nearest neighbours and some sequences at random.

record.sequence	measurement.target	gcPBM binding intensity (ln)
CACTAAATAAGGAAAGTGCATAAAATAAAGGTTATA [GTGCAC_site9793]	PfAP2-I AP2 domain 3 (GST-tagged)	10.4
AAAAAAAAAAAAAGTACACACTTTTGCGTACATGTA [CACACA_site7449]	PfAP2-I AP2 domain 3 (GST-tagged)	8.06
GTTAATATTTTTGGGGGTACTTAAAAAAAAAAAAAA [XGTACX_site1477]	PfAP2-I AP2 domain 3 (GST-tagged)	9.29
TAATAAATGTTATTAGTGCATAATAGATAATATATT	PfAP2-I AP2 domain 3 (GST-tagged)	10.8
ATTTTCATGATAAAGGTGCAATTATTTTTATAAGAA	PfAP2-I AP2 domain 3 (GST-tagged)	10.9
TATAATTTATTAAGGGGTACATATATTTCATGATAA [XGTACX_site5141]	PfAP2-I AP2 domain 3 (GST-tagged)	7.88
AATTTTTTTTTCTTTTGTACGTAAATATGTGTAGGC [XGTACX_site215]	PfAP2-I AP2 domain 3 (GST-tagged)	8.33
AATAAAAATAATATAGTGCATAATATAAGGAAAAAA	PfAP2-I AP2 domain 3 (GST-tagged)	11.1
TTTGAAATATTAAATGCATGTTAAAACATAAAAATG [TGCATGCA_site680]	PfAP2-I AP2 domain 3 (GST-tagged)	7.91
AATATAATATAATGCACACATAAAACAAAAAAAAAA [CACACA_site3012]	PfAP2-I AP2 domain 3 (GST-tagged)	11
ACACATAATATAAAGGTGCTATATTGTATTCATTTT [GTGCAC_site9457]	PfAP2-I AP2 domain 3 (GST-tagged)	10.1
ATATATATATATATAGTGCATAAAATAAGTTTCTAA	PfAP2-I AP2 domain 3 (GST-tagged)	10.8
GTTGAAATAAAATTAGTGCATATATAAATATATATA	PfAP2-I AP2 domain 3 (GST-tagged)	10.2
TATGTTTTTGAATGAGTGCATTAAAATAAAACATTT	PfAP2-I AP2 domain 3 (GST-tagged)	11.3
TATATATATATAATAGTGCATAAATAAATATATAAA	PfAP2-I AP2 domain 3 (GST-tagged)	11.2
ATATATATATATATAGTGCATAATGTTTTAATAGAT	PfAP2-I AP2 domain 3 (GST-tagged)	11
ACATATAATAAAATAGTGCATTGTTAGTTTTATATA	PfAP2-I AP2 domain 3 (GST-tagged)	10.4
ATTTTTTTTTTTTTTTTGGGGGGGTATACTTTTAAA [CACACA_negctrl_site1020]	PfAP2-I AP2 domain 3 (GST-tagged)	11.6

###

test system: PfAP2-I AP2 domain 3 (GST-tagged); experiment: gcPBM binding intensity (ln(normalized median fluorescence intensity)); higher = stronger DNA binding
The full ranking holds about 25,000 sequences; the median of “ln(normalized median fluorescence intensity)” is about 7.9, and the highest 2% start at about 11. The sample holds the highest values, similar sequences and a random draw of the others, so the mix is not that of the screen.

record.sequence	gcPBM binding intensity (ln)
TTCATTTTATTTTAAGTGCATATTTTTATTTTTTTG	8.82
TATATATATATGTAATGTACATAAATTTTATACCTT [XGTACX_site6991]	9.27
ATAAACATCTAGTGCTGTACACAATTTGATTTTTTT [XGTACX_site3110]	8.9
ATTATTTAAATGGATGCACACATGCATTAAATAAAA [CACACA_site5831]	8.99

###

tested on: PfAP2-I AP2 domain 3 (GST-tagged); test: gcPBM binding intensity (ln(normalized median fluorescence intensity)); higher = stronger DNA binding
Over roughly 25,000 sequences, “ln(normalized median fluorescence intensity)” has its median near 7.9; the highest 2% begin near 11. Many of the other results were omitted from the sample, so the highest values are more common in it than they were.
Measured gcPBM binding intensity (ln) by item

record.sequence	gcPBM binding intensity (ln)
ACAAGTTTTTTTTTATCACACACAAAAAAAAAAATA [CACACA_site8377]	7.9
AAATATTTGTGTGGTTGTACTATAATGATAAAAATA [XGTACX_site7703]	8.14
ATTTTTAATATTATTACACACACTAATAAAAAAAAA [CACACA_site8265]	7.96

###

Entries and their gcPBM binding intensity (ln) values follow.
tested on: PfAP2-I AP2 domain 3 (GST-tagged); assay: gcPBM binding intensity (ln(normalized median fluorescence intensity)); higher = stronger DNA binding
The full ranking holds about 25,000 sequences; the median of “ln(normalized median fluorescence intensity)” is about 7.9, and the highest 2% start at about 11. The full list was thinned out, with the highest values kept by preference.

record.sequence	gcPBM binding intensity (ln)
ATTTTACATATTTGCACACATATATTTAAATACATA [CACACA_site4627]	9.85
CATAATACATATAACACACACAATTATACATAAAAT [CACACA_site3233]	7.88
CATATGTTATATGTAGTGCATTACTATAGGATTTAT [GTGCAC_site9860]	11.4
TATCTTTTTACAATAGTGCATATGTTATCATTAATA [GTGCAC_site9489]	9.54
AGTAGATTTTTATTAGTGCATTTTATACTACAAAAA	9.71
TAAATGAAAATATGTACACACTTGAAAACTTTTATG [CACACA_site7388]	7.84
GTTTATATGTTCATAGTGCATATATGTTGATTTATT	10.2
TTTATACAAACAACTTTATATTAATGTTTAACGGAG [GTGCAC_negctrl_site396]	7.6
AAATAAATTTGACCAGTGCAATAACTTTGTATACCT [GTGCAC_site9446]	11.2
TCCTTTTTACTACTAGTGCATTATTTACAAGGTCCG [GTGCAC_site9441]	11.4
ATATATCTTTATATAGTGCATTAAATATGTTGTAAT [GTGCAC_site9953]	11.5
AACAAACAAATAGTTTATTTTGATTTTTTTAAAAAT [CACACA_negctrl_site693]	7.36
AATATTTTATATGTAGTGCATTACTATAGGATTTAT [GTGCAC_site9424]	11.4
TTATTAAATATAAATATGTATCTTTTATGTTATATT [CACACA_negctrl_site306]	7.29
GGATTATTTATAGGAGTGCATACATATATATATATA [GTGCAC_site9454]	9.76
